- target under test: PRMT5-MEP50 enzyme complex (Homo sapiens)
- Sequence (O14744 2-637 limits assumed): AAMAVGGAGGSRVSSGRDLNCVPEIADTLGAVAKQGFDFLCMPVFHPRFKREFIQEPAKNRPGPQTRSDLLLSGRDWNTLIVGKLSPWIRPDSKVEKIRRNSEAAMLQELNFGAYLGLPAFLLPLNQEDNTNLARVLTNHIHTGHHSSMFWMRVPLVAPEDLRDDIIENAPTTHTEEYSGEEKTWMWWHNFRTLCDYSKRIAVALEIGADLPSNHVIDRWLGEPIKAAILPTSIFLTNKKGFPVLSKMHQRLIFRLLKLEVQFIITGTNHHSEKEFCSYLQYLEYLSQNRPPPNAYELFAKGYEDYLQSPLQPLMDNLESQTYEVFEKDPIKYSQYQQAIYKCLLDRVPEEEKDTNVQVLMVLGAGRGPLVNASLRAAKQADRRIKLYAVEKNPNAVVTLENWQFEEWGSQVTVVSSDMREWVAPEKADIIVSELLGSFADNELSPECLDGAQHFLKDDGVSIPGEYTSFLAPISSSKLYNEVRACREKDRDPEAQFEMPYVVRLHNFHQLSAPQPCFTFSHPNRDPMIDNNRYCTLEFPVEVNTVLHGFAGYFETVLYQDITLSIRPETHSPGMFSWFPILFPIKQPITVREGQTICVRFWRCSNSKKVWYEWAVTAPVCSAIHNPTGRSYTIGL
- Sequence (Q9BQA1 2-342 partner limits assumed): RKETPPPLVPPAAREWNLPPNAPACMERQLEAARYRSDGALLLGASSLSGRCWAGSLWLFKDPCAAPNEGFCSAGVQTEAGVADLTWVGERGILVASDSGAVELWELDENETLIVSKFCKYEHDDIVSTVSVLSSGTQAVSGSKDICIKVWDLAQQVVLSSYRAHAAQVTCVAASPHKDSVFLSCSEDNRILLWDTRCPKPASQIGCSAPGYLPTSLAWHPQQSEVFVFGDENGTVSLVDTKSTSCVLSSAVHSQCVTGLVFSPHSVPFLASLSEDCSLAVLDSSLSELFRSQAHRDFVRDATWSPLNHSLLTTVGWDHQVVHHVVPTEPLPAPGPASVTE
- test details: In vitro PRMT5 enzyme activity assay (methylation of histone H4 arginine H4R3, ELISA absorbance at 450 nm)
- experimental parameters: S-adenosylmethionine, histone H4 peptide, 2 hours at room temperature, 8 points 10 μM to 0.128 nM
pIC50: −log10 of the molar value.
Readings of pIC50 for the listed compounds
result type: pIC50

O=C1c2ccc(OC3CCN(C4COC4)CC3)cc2CCN1C[C@H](O)CN1CCc2ccccc2C1    7.00 to 9.00
CCN1CCC(Oc2ccc3c(c2)CCN(C[C@H](O)CN2CCc4ccccc4C2)C3=O)C1 (stereo partly shown)    6.00 to 7.00
CC(C)(C)OC(=O)N1CC=C(c2ccc3c(c2)CCN(C[C@H](O)CN2CCc4ccccc4C2)C3=O)CC1    7.00 to 9.00
O=C1c2ccc(N3CC(CO)C3)cc2CCN1C[C@H](O)CN1CCc2ccccc2C1    6.00 to 7.00
CC(C)(C)C(=O)N1CCN(c2ccc3c(c2)CCN(C[C@H](O)CN2CCc4ccccc4C2)C3=O)CC1    7.00 to 9.00
O=C1c2ccc(NC3CCOC3)cc2CCN1C[C@H](O)CN1CCc2ccccc2C1 (stereo partly shown)    6.00 to 7.00
CC1CN(c2ccc3c(c2)CCN(C[C@H](O)CN2CCc4ccccc4C2)C3=O)CC(=O)N1C (stereo partly shown)    7.00 to 9.00
